assay: Aqueous solubility of compound in PBS at pH 7.4; format: physicochemical
experimentalEndpoint: solubility kinetic (µM)
# unit: µM | format: bare number

molecule CN(C)S(=O)(=O)NCC1CCOC2(CCN(C(=O)C(=O)c3ccccc3)CC2)C1 (centres undefined) , solubility kinetic observed: 170

Record O=C(N1CCC2(CC1)CC(CN1CCCCS1(=O)=O)CCO2)C1(c2ccccc2F)CCCC1 (centres undefined) . Reported solubility kinetic: 190

Value of solubility kinetic reported for the molecule CS(=O)(=O)NCC1CCOC2(CCN(C(=O)Cc3ccccc3)CC2)C1 (centres undefined) is 200

// COc1cccc(C(=O)NCC2CCOC3(CCN(C(=O)C4(c5ccccc5)CCCC4)CC3)C2)c1 (centres undefined) : solubility kinetic value = 19

get_value(item= CS(=O)(=O)NCC1CCOC2(CCN(C(=O)C3(c4ccccc4)CCCCC3)CC2)C1 (centres undefined) , readout=solubility kinetic) returns 230

Item: O=C(NCC1CCOC2(CCN(C(=O)C3(c4ccccc4)CCCC3)CC2)C1)c1ccncc1 (centres undefined) | solubility kinetic: 170

According to the records, this molecule O=C(N1CCC2(CC1)CC(CNS(=O)(=O)CCCCl)CCO2)C1(c2ccccc2)CCCC1 (centres undefined) displays solubility kinetic of 100

Quick note, solubility kinetic for O=C(N1CCC2(CC1)CC(CNS(=O)(=O)CCCCCl)CCO2)C1(c2ccccc2)CCCC1 (centres undefined) landed at 60

GET /value?item= O=C1CCCN1CC1CCOC2(CCN(C(=O)C3(c4ccccc4)CCCC3)CC2)C1 (centres undefined) &field=solubility kinetic returns 200

For record CN(C)S(=O)(=O)NCC1CCOC2(CCN(C(=O)C3(c4ccccc4)CCCC3)CC2)C1 (centres undefined) the listed solubility kinetic is 200

Per the records, this molecule ( CCS(=O)(=O)NCC1CCOC2(CCN(C(=O)C3(c4ccccc4)CCCC3)CC2)C1 (centres undefined) ) has solubility kinetic equal to 230

Lab note: measured solubility kinetic of NC(=O)NCC1CCOC2(CCN(C(=O)C3(c4ccccc4)CCCC3)CC2)C1 (centres undefined) was 190

Form field solubility kinetic, entry O=C(NCC1CCOC2(CCN(C(=O)C3(c4ccccc4)CCCC3)CC2)C1)Nc1ccccc1 (centres undefined) : 10

NCC1CCOC2(CCN(C(=O)C3(c4ccccc4)CCCC3)CC2)C1 (centres undefined) yielded solubility kinetic of 160

response.value for O=C(N1CCC2(CC1)CC(CNS(=O)(=O)c1ccccc1)CCO2)C1(c2ccccc2)CCCC1 (centres undefined) (field: solubility kinetic) = 1

###

biological target: Polyprotein P1234 (Chikungunya virus (strain S27-African prototype) (CHIKV), UniProt Q8JUX6); test: Inhibition of N-terminal 6-His/SUMO-tagged CHIKV 181/25 nsP2 extracted from Escherichia coli Rosetta 2 assessed as decrease in nsP2 helicase activity in presence of RNA duplex composed of 39mer loading RNA strand/19mer displaced RNA strand by gel electrophoresis
Sequence (Q8JUX6 536-1333 limits assumed): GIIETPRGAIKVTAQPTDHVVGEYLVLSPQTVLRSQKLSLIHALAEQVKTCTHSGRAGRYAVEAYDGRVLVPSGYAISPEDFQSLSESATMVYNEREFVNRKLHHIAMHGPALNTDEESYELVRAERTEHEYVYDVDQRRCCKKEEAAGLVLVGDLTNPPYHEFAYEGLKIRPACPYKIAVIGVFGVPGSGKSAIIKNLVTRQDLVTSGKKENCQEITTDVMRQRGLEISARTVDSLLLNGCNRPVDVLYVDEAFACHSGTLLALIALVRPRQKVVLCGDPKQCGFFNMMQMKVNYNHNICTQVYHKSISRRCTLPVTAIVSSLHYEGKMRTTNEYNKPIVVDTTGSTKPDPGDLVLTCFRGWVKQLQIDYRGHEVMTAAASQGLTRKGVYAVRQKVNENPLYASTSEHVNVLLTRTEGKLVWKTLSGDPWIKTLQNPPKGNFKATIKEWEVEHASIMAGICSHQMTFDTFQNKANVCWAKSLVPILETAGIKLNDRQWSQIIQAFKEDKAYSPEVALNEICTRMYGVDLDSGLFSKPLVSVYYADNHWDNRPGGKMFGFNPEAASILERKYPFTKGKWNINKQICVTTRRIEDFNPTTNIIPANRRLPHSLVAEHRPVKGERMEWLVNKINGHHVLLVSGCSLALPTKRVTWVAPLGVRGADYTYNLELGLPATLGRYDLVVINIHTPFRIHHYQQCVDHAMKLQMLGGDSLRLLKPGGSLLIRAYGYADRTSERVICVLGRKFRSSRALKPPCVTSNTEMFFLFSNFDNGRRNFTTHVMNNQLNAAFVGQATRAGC
experimentalEndpoint: pIC50
Bear in mind: pIC50 is minus log10 of a mol/L concentration; give just that figure.

Query O=C(N1CCC2(CC1)CC(CN1CCCCS1(=O)=O)CCO2)C1(c2ccccc2)CCCC1 (stereo unspecified) yields pIC50 of 6.05

###

tested on: Chikungunya virus; assay: Inhibition of N-terminal 6-His/SUMO-tagged CHIKV 181/25 nsP2 extracted from Escherichia coli Rosetta 2 at 200 uM preincubated for 30 mins followed by ATP addition measured after 1 hr by ADP-Glo assay relative to control; conditions: time 90.0 min
Please respond with reported inhibition for every item in the list.

Input O=C(NCC1CCOC2(CCN(C(=O)C3(c4ccccc4)CCCC3)CC2)C1)c1ccncc1 (stereo not drawn) . Output inhibition: 70%

Please fill in: inhibition reported for Cc1ccnc(NC2CCOC3(CCN(C(=O)C4(c5ccccc5)CCCC4)CC3)C2)c1 (stereo not drawn) = 70%
